experiment: Pharmacokinetic study, IV vs inhalation, lung and plasma; type: in vivo, rat; conditions: rat, inhaled; Plasma (INH)
measure_name: AUC (ng·h/mL)
Give bare numbers, in ng·h/mL.

Query: AUC; subject: COc1cc(-c2cncc(N[C@@H](C)c3cccc(NC(=O)c4cncc(C)c4)c3)n2)ccc1O [PK10453]
65.5

* * *

biological target: PDGFR beta receptor (Homo sapiens, UniProt P09619)
Sequence (P09619 33-1106): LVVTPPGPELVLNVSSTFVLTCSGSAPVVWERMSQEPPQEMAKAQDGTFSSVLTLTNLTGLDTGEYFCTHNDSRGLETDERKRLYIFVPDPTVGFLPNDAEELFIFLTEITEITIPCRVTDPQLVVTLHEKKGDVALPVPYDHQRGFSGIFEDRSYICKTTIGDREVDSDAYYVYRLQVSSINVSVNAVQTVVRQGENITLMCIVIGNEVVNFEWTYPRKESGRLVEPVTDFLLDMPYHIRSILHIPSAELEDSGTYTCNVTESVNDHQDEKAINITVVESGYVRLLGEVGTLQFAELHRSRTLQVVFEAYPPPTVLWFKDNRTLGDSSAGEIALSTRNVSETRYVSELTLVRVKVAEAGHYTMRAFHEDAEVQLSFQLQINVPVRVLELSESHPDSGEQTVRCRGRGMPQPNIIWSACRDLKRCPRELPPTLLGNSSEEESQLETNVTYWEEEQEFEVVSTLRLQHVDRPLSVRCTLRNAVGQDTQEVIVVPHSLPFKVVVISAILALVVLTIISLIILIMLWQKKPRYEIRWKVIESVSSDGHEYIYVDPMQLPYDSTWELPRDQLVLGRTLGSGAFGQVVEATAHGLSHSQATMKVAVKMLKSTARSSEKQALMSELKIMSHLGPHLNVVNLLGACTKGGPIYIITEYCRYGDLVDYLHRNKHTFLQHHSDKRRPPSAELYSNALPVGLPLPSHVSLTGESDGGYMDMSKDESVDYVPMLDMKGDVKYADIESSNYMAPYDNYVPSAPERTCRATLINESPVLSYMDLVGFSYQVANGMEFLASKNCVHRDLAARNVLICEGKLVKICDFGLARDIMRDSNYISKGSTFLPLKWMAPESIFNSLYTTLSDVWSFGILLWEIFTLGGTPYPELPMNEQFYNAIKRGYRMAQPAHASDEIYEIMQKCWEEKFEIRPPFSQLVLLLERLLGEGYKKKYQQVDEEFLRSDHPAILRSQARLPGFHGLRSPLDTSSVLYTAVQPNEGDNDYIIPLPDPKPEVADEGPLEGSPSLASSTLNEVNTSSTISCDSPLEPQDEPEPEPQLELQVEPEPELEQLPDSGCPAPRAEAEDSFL
measure_name: IC50 (nM)
Numbers only, in nM.

Query: IC50; subject: COc1cc(-c2cncc(N[C@@H](C)c3cccc(NC(=O)c4cncc(C)c4)c3)n2)ccc1O [PK10453]
15
